molecular target: Menin-MLL binding (His-Menin1-615 / MLL1-172-FLAG) (Homo sapiens (Human), UniProt O00255); assay: Test 1: inhibition of the Menin-MLL binding (HTRF)
Sequence (O00255 other isoform, or with tags, fused parts or gaps): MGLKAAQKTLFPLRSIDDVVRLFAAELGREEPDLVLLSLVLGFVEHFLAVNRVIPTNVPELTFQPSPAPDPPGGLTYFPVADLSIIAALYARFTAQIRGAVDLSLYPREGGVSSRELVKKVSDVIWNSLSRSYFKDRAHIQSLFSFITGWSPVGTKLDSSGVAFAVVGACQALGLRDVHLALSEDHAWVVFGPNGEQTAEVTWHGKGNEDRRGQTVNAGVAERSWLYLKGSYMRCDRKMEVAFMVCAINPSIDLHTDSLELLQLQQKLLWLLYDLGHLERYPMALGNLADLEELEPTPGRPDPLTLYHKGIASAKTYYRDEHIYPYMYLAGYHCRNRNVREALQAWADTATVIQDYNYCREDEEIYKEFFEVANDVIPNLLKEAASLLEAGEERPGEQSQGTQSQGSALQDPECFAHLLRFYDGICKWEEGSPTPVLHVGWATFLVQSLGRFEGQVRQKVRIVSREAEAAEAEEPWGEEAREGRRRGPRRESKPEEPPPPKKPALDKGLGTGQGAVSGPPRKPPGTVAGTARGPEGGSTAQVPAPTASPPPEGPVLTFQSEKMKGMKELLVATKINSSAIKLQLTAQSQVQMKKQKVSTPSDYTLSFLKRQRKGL
For each entry below, report its IC50 value.
Use nM as the unit, but write only the number.

molecule O=C([C@H]1N[C@@H]2CC[C@H]1C2)N1CC2(C1)CN(c1c(C(F)(F)F)cnc3sc(CC(F)(F)F)cc13)C2 [Example 2] , IC50 observed: 17.8

molecule N#Cc1cnc2sc(CC(F)(F)F)cc2c1N1CC2(CN(C(=O)[C@H]3N[C@H]4CC[C@@H]3C(=O)C4)C2)C1 [Example 25] , IC50 observed: 90.2

molecule O=C([C@H]1N[C@H]2CC[C@@H]1C[C@@H]2O)N1CC2(C1)CN(c1c(C(F)(F)F)cnc3sc(CC(F)(F)F)cc13)C2 [Example 6] , IC50 observed: 27.3

###

biological target: Menin-MLL binding (His-Menin1-615 / MLL1-172-FLAG) (Homo sapiens (Human), UniProt O00255); test: Test 1: inhibition of the Menin-MLL binding (HTRF)
measurement.type: IC50
Reply with the number and its unit after it.

compound N#Cc1cnc2sc(CC(F)(F)F)cc2c1N1CC2(CN(C(=O)[C@H]3N[C@H]4CC[C@@H]3C(F)(F)C4)C2)C1 , IC50 observed: 11 nM

compound O=C([C@H]1N[C@H]2CC[C@@H]1C[C@H]2F)N1CC2(C1)CN(c1c(C(F)(F)F)cnc3sc(CC(F)(F)F)cc13)C2 , IC50 observed: 343 nM

compound O=C([C@H]1NC2CCC1CC2)N1CC2(C1)CN(c1c(C(F)F)cnc3sc(CC(F)(F)F)cc13)C2 , IC50 observed: 44.7 nM

compound C=CCO[C@H]1C[C@H]2CC[C@@H]1N[C@@H]2C(=O)N1CC2(C1)CN(c1c(C(F)(F)F)cnc3sc(CC(F)(F)F)cc13)C2 , IC50 observed: 53.9 nM

compound N#Cc1cnc2sc(CC(F)(F)F)cc2c1N1CC2(CN(C(=O)[C@H]3NC4CCC3CC4)C2)C1 , IC50 observed: 11.4 nM

compound O=C([C@H]1N[C@H]2CC[C@@H]1C(F)(F)C2)N1CC2(C1)CN(c1c(C(F)(F)F)cnc3sc(CC(F)(F)F)cc13)C2 , IC50 observed: 140 nM

compound N#Cc1cnc2sc(CC(F)(F)F)cc2c1N1CC2(CN(C(=O)[C@H]3N[C@@H]4CC[C@H]3C4)C2)C1 , IC50 observed: 8.4 nM

###

target: Menin-MLL binding (His-Menin1-615 / MLL1-172-FLAG) (Homo sapiens (Human)); assay: Test 1: inhibition of the Menin-MLL binding (HTRF)
For each entry below, report its IC50 value.
Use nM as the unit, but write only the number.

The value of IC50 recorded for O=C([C@H]1N[C@H]2C[C@@H]1[C@@H](F)C2)N1CC2(C1)CN(c1c(C(F)(F)F)cnc3sc(CC(F)(F)F)cc13)C2 when tested on Menin-MLL binding (His-Menin1-615 / MLL1-172-FLAG) (Homo sapiens (Human)) reads 31.7

The value of IC50 recorded for O=C([C@H]1NC2CCC1CC2)N1CC2(C1)CN(c1c(C(F)(F)F)cnc3sc(CC(F)(F)F)cc13)C2 when tested on Menin-MLL binding (His-Menin1-615 / MLL1-172-FLAG) (Homo sapiens (Human)) reads 31.8

The value of IC50 recorded for O=C([C@H]1N[C@H]2CC[C@@H]1C[C@@H]2OCc1ccccc1)N1CC2(C1)CN(c1c(C(F)(F)F)cnc3sc(CC(F)(F)F)cc13)C2 when tested on Menin-MLL binding (His-Menin1-615 / MLL1-172-FLAG) (Homo sapiens (Human)) reads 134

The value of IC50 recorded for O=C([C@H]1N[C@H]2CC[C@@H]1[C@@H](F)C2)N1CC2(C1)CN(c1c(C(F)(F)F)cnc3sc(CC(F)(F)F)cc13)C2 when tested on Menin-MLL binding (His-Menin1-615 / MLL1-172-FLAG) (Homo sapiens (Human)) reads 13.3

The value of IC50 recorded for O=C([C@H]1N[C@@H]2CC[C@H]1C2)N1CC2(C1)CN(c1c(C(F)F)cnc3sc(CC(F)(F)F)cc13)C2 when tested on Menin-MLL binding (His-Menin1-615 / MLL1-172-FLAG) (Homo sapiens (Human)) reads 26

The value of IC50 recorded for O=C1C[C@@H]2CC[C@H]1[C@@H](C(=O)N1CC3(C1)CN(c1c(C(F)(F)F)cnc4sc(CC(F)(F)F)cc14)C3)N2 when tested on Menin-MLL binding (His-Menin1-615 / MLL1-172-FLAG) (Homo sapiens (Human)) reads 635
